# measured on: UniProt:Q60644
# Sequence (Q60644 whole entry): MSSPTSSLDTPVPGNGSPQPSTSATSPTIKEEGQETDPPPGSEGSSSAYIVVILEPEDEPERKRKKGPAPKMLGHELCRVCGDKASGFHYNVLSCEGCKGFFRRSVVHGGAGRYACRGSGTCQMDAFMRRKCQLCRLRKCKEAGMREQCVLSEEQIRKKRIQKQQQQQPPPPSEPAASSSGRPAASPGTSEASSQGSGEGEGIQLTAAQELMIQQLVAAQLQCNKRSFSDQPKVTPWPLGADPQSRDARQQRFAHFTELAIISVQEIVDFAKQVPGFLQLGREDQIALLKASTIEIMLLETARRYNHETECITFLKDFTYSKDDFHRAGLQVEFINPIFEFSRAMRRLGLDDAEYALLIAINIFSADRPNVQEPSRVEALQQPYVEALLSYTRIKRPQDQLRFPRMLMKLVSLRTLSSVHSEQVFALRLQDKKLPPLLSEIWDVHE
# measurement description: Agonist activity at mouse LXRbeta expressed in HEK293 cells co-expressing CMX-beta-galactosidase incubated for 16 hrs by luciferase reporter gene assay
# Assay type: cell-based
pEC50: −log10 of the molar value.
measure name: pEC50

[I] O=C1c2c(Cl)c(Cl)c(Cl)c(Cl)c2C(=O)N1c1ccccc1/C=C/c1ccccc1
[II] O=C1c2c(Cl)c(Cl)c(Cl)c(Cl)c2C(=O)N1c1ccccc1/C=C/c1ccsc1
[III] O=C1c2c(Cl)c(Cl)c(Cl)c(Cl)c2C(=O)N1c1ccccc1/C=C/c1nccs1
Prompt: Sort the listed compounds above so the one with the largest pEC50 comes first and the smallest comes last. Arrange the labels as the request states and list them.
Response: I, II, III
(I: 6.52, II: 6.09, III: 5.53)
